Subject Of Test: T1, CRD1
T1 construct: also called fragmented human CD137-Fc fusion protein CRD1
Assay Procedure: ELISA, coated CD137-Fc protein 2 µg/mL, antibody 10 or 5 µg/mL; absorbance 620 nm divided by that of the uncoated well
Property Name: Ratio with respect to Non-Coating

>>> experimental_result("R3 (antibody, V domains shown, Naive library clone; Fab on phage in the phage ELISA) VH: EVQLVQSGAEVKKPGASVKVSCKASGYTFTSYYTHWVRQAPGQGLEWMGIINPSGGSTSYAQKFQGRVTMTRDTSTSTVYMELSSLRSEDTAVYYCARGAPEYSSSSDYWGQGTMVTVSS VL: QSALTQPASVSGSPGQSITISCTGTSSDVGGYNFVSWYQQHPGKAPKLMIYDVSKRPSGVSTRFSGSKSGNTASLTISGLQAEDEADYYCNSYTTSSTRWMFGGGTKVTVL")
1.7
>>> experimental_result("R4 (antibody, V domains shown, Naive library clone; Fab on phage in the phage ELISA) VH: EVQLVQSGAEVKKPGASVKVSCKASGYTFSGYYMHWVRQAPGQGLEWMGWINPNSGDTNYAQNFQGRVTMTRDTSISTAYMELSRLRSDDTAVYYCARDGTGYSSSPDYWGQGTPVTVSS VL: QSALTQPASVSGSPGQSITISCTGTSSDVGGYNYVSWYQQHPGKAPKLMIYDVSNRPSGVSNRFSGSKSGNTASLTISGLQAEDEADYYCSSYTSSSTRWVFGGGTKLTVL")
1.2
>>> experimental_result("R8 (antibody, V domains shown, Synthetic library clone; Fab on phage in the phage ELISA) VH: QVQLQESGPGLVKPSETLSLTCAVSGYSISSGYYWGWIRQPPGKGLEWIGSIYHSGSTYYNPSLKSRVTISVDTSKNQFSLKLSSVTAADTAVYYCARQHSFTRYYGYYYFDYWGQGTTVTVSS VL: DIQMTQSPSSLSASVGDRVTITCRASQSISSYLNWYQQKPGKAPKLLIYAASSLQSGVPSRFSGSGSGTDFTLTISSLQPEDFATYYCLQSDSIPLTFGGGTKVEIK")
0.7
